tested-target: BACE1 (Homo sapiens, UniProt P56817)
Sequence (P56817 46-501): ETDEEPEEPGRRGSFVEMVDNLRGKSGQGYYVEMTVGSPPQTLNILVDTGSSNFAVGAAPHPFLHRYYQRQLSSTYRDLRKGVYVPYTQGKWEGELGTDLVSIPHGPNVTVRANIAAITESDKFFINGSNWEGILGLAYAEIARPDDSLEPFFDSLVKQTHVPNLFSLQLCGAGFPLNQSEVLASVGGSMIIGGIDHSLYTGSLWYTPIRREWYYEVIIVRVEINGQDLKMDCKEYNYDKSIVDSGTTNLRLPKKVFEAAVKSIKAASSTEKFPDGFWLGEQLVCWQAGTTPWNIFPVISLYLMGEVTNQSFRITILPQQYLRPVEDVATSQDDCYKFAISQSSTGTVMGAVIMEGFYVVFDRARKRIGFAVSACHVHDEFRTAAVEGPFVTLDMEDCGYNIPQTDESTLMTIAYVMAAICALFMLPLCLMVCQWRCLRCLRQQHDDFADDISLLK
experiment-summary: BACE1 biochemical cellular assay (sAPPβ ELISA in H4 cells overexpressing APP695)
Format: cell-based
Design: endogenous in cells; host or cells: H4 human neuroglioma cells overexpressing human APP695
reported-conditions: sAPPβ ELISA, H4 neuroglioma cells with human wild-type APP
pIC50: −log10 of the molar value.
measurement-type: pIC50

compound="Cc1cc([C@H]2C[C@H]3[C@@H](C)SC(N)=N[C@@]3(c3ccc(F)cc3F)CO2)on1 [PF-9283]" readout_number=8.22
compound="C#CCOc1ccc(C(=O)c2ccc(COC[C@H]3C[C@H]4CSC(N)=N[C@@]4(c4ccc(F)cc4F)CO3)cc2)cc1 [PF-7802]" readout_number=6.49
compound="Cc1coc([C@H]2C[C@H]3[C@@H](CF)SC(N)=N[C@@]3(c3ccc(F)cc3F)CO2)n1 [PF-1283]" readout_number=8.00
compound="NC1=N[C@@]2(c3ccc(F)cc3F)CO[C@@H](c3cc(CO)no3)C[C@H]2[C@@H](CF)S1 [PF-3763]" readout_number=7.10
